Assay: Stability test (influence factor test, Chinese Pharmacopoeia 2020 General Chapter 9001)
Settings: high humidity RH92.5%, 30 days, HPLC
Measurement Type: Decomposition product butylphthalide % (%)

• CCCCC(O)c1ccccc1C(=O)O.NC12CC3CC(CC(C3)C1)C2 (centres unmarked) [Compound 1] = 0.298
• CC12CC3CC(C)(C1)CC(N)(C3)C2.CCCCC(O)c1ccccc1C(=O)O (centres unmarked) [Compound 4] = 0.258
• CCCCC(O)c1ccccc1C(=O)[O-].[K+] (centres unmarked) [Potassium salt, reference compound] = 25.687
• CC(C)(C)N.CCCCC(O)c1ccccc1C(=O)O (centres unmarked) [Tert-butylamine salt, reference compound] = 10.214
• CC(C)NC(C)C.CCCCC(O)c1ccccc1C(=O)O (centres unmarked) [Diisopropylamine salt, reference compound] = 8.025

----------
Experiment: Stability test (influence factor test, Chinese Pharmacopoeia 2020 General Chapter 9001)
Conditions: 0 day
Measurement Type: Property

* CC(C)(C)N.CCCCC(O)c1ccccc1C(=O)O (centres unmarked) [Tert-butylamine salt, reference compound] | White powder
* CCCCC(O)c1ccccc1C(=O)[O-].[K+] (centres unmarked) [Potassium salt, reference compound] | White powder
* CC12CC3CC(C)(C1)CC(N)(C3)C2.CCCCC(O)c1ccccc1C(=O)O (centres unmarked) [Compound 4] | White powder
* CCCCC(O)c1ccccc1C(=O)O.NC12CC3CC(CC(C3)C1)C2 (centres unmarked) [Compound 1] | White powder
* CC(C)NC(C)C.CCCCC(O)c1ccccc1C(=O)O (centres unmarked) [Diisopropylamine salt, reference compound] | White powder

----------
Test: Stability test (influence factor test, Chinese Pharmacopoeia 2020 General Chapter 9001)
Conditions: 0 day, HPLC
Quick rule for you: Decomposition product butylphthalide % at 0.09% or higher means Criterion met, lower means Criterion not met.

* CC12CC3CC(C)(C1)CC(N)(C3)C2.CCCCC(O)c1ccccc1C(=O)O (centres unmarked) | Criterion met
* CC(C)(C)N.CCCCC(O)c1ccccc1C(=O)O (centres unmarked) [Tert-butylamine salt, reference compound] | Criterion not met
* CCCCC(O)c1ccccc1C(=O)O.NC12CC3CC(CC(C3)C1)C2 (centres unmarked) | Criterion met
* CC(C)NC(C)C.CCCCC(O)c1ccccc1C(=O)O (centres unmarked) [Diisopropylamine salt, reference compound] | Criterion not met

----------
System: MCAO rats
Experiment: Neurological deficit scoring (Longa method) in rat MCAO ischemia-reperfusion stroke model
Conditions: 24 h postoperatively, t-test versus model group, doses as in Table 1
Measurement Type: neurological symptoms of rats compared with the model group

* CCCCC(O)c1ccccc1C(=O)[O-].[K+] (stereo not drawn) [Potassium salt, reference compound] | significantly improved
* CCCCC1OC(=O)c2ccccc21 (stereo not drawn) [Butylphthalide, reference compound] | significantly improved
* CCCCC(O)c1ccccc1C(=O)O.NC12CC3CC(CC(C3)C1)C2 (stereo not drawn) | highly significant
* CC12CC3CC(C)(C1)CC(N)(C3)C2.CCCCC(O)c1ccccc1C(=O)O (stereo not drawn) | highly significant
* CCCCC(O)c1ccccc1C(=O)O.N[C@@H]1[C@@H]2C[C@@H]3C[C@H]1C[C@@](O)(C3)C2 (stereo not drawn) | highly significant

----------
Tested on: MCAO rats
Experiment: Neurological deficit scoring (Longa method) in rat MCAO ischemia-reperfusion stroke model
Conditions: neurological deficit score 2 h after ischemia (administration started at reperfusion after 2 h); group dose 0.016 mmol/kg, tail vein, single dose, n=10
Measurement Type: Score 2h

• CCCCC(O)c1ccccc1C(=O)[O-].[K+] (centres unmarked) [Potassium salt, reference compound] = 2.9
• CCCCC(O)c1ccccc1C(=O)O.NC12CC3CC(CC(C3)C1)C2 (centres unmarked) = 2.8
• NC12CC3CC(CC(C3)C1)C2 [Amantadine, amantadine, reference compound] = 2.5
• CC12CC3CC(C)(C1)CC(N)(C3)C2.CCCCC(O)c1ccccc1C(=O)O (centres unmarked) = 2.7
• CCCCC(O)c1ccccc1C(=O)O.N[C@@H]1[C@@H]2C[C@@H]3C[C@H]1C[C@@](O)(C3)C2 (centres unmarked) = 2.9

Cited source: patent EP4685128A1
